assay: in vivo; settings: male, C57/BL6, mouse, po, 20 mg/kg
Observation Type: half-life at 24 h (min)
Express your answer in min, writing the number without its unit.

I have this compound here, Cc1cc(C)n(-c2nc(C(F)(F)F)cc(=O)[nH]2)n1 , and I need its recorded half-life at 24 h.
240

----------
test: Mouse pharmacokinetics, i.v. and oral; details: male, C57/BL6, mouse, whole blood, iv, 2 mg/kg
Observation Type: clearance at 24 h (mL/min/kg)
Quick reminder: number only, in mL/min/kg, skip the unit.

Would you kindly share the measured clearance at 24 h for Cc1cc(C)n(-c2nc(C(F)(F)F)cc(=O)[nH]2)n1 ?
2.7

----------
assay: Mouse pharmacokinetics, i.v. and oral; settings: male, C57/BL6, mouse, whole blood, iv, 2 mg/kg
Observation Type: CLint scaled (mL/min/kg)
Return type: number; implicit unit mL/min/kg.

Tell me the measured CLint scaled of Cc1cc(Nc2ccc(F)cc2)n(-c2nc(C(F)(F)F)cc(=O)[nH]2)n1 [Compound 40] , please.
34

----------
experiment: in vivo; conditions: male, C57/BL6, mouse, po, 20 mg/kg
Observation Type: half-life (h)
Give just the number in h; leave the unit off.

- CCNc1cc(C)nn1-c1nc(-c2cccnc2)cc(=O)[nH]1: 4.4

Turning to the following compound.
Look at this compound and give its reported half-life. Cc1cc(Nc2ccc(F)cc2)n(-c2nc(C(F)(F)F)cc(=O)[nH]2)n1
6.1

----------
assay: Mouse pharmacokinetics, i.v. and oral; details: male, C57/BL6, mouse, whole blood, oral, 20 mg/kg
# bioavailability annotations

* Cc1cc(C)n(-c2nc(C(F)(F)F)cc(=O)[nH]2)n1 | ~40%

Quick check: bioavailability of Cc1cc(Nc2ccc(F)cc2)n(-c2nc(C(F)(F)F)cc(=O)[nH]2)n1 ?
~40%

----------
system: mmpL3-TetON; experiment: microbe, parasite or virus in culture; format: cell-based, M. tuberculosis; details: Mycobacterium tuberculosis, experiment: Follow-Up
Observation Type: MIC (µM)
State just the number; it will be interpreted in µM.

• CC[C@@H](CO)NCCN[C@@H](CC)CO [Ethambutol, reference compound] = 4.9
• CCNc1cc(C)nn1-c1nc(-c2cccnc2)cc(=O)[nH]1 = 4.4
• Cc1cc(Nc2ccc(F)cc2)n(-c2nc(C(F)(F)F)cc(=O)[nH]2)n1 = 0.56
• Cc1cc(C)n(-c2nc(O)cc(-c3ccccc3)n2)n1 = 0.57

Now take the following compound into account.
Form: Entry = CC(C)=CCC/C(C)=C/CNCCNC1C2CC3CC(C2)CC1C3 (centres unmarked) [SQ109, reference compound] | System = mmpL3-TetON | MIC = ____
0.19

----------
Below, each of the compounds is paired with its reported Cmax value.
experiment: Mouse pharmacokinetics, i.v. and oral; conditions: male, C57/BL6, mouse, whole blood, po, 20 mg/kg
# unit: µM | format: bare number

• Cc1cc(Nc2ccc(F)cc2)n(-c2nc(C(F)(F)F)cc(=O)[nH]2)n1 = 104

Kindly consider the entry below.
Entry under review: CCNc1cc(C)nn1-c1nc(-c2cccnc2)cc(=O)[nH]1 . Reported Cmax?
2.9

----------
assay: Mouse pharmacokinetics, i.v. and oral; settings: male, C57/BL6, mouse, whole blood, iv, 2 mg/kg
Some molecules, each annotated with its measured Vd.
Provide the reading as a plain figure in L/kg.

• CCNc1cc(C)nn1-c1nc(-c2cccnc2)cc(=O)[nH]1 = 37.4

Now turn to the next molecule.
Looking for the measured Vd of Cc1cc(Nc2ccc(F)cc2)n(-c2nc(C(F)(F)F)cc(=O)[nH]2)n1 , can you help?
0.1
